# -fold increase in K i compared with wild-type annotations
# Experimental Target: H^+,K^+-ATPase L139F (Sus scrofa, UniProt P19156, L140F)
# Method Summary: ATPase assay, L139F mutant
# Test Parameters: L139F
# number only, unit fold dropped from output

Cc1cn2cccc(OCc3ccccc3)c2n1 [SCH-CN^−] ... 2.1
Cc1nc2c3c(ccn2c1C)[C@@H](O)[C@H](O)[C@@H](c1ccccc1)N3C [BYK73] ... 1.8
N#CCc1cnc2c(OCc3ccccc3)cccn12 [SCH-Me^−] ... 1.2

Can you look up -fold increase in K i compared with wild-type on H^+,K^+-ATPase L139F (Sus scrofa, UniProt P19156, L140F) for Cc1nc2c3c(ccn2c1C)[C@@H](O)[C@H](O)[C@@H](c1ccccc1)N3 [BYK99] ?
3.1

###

# Experimental Target: H^+,K^+-ATPase N138A (Sus scrofa, UniProt P19156, N139A)
# Method Summary: ATPase assay, N138A mutant
# Test Parameters: N138A
Below, each entry is listed alongside its reported -fold increase in K i compared with wild-type.
Write down the value, and be sure its unit follows.

N#CCc1cnc2c(OCc3ccccc3)cccn12 ... 0.05 fold
Cc1nc2c3c(ccn2c1C)[C@@H](O)[C@H](O)[C@@H](c1ccccc1)N3 ... 0.2 fold
Cc1cn2cccc(OCc3ccccc3)c2n1 ... 1.3 fold

As a next step, examine the compound that follows.
Query (compound): Cc1nc2c3c(ccn2c1C)[C@@H](O)[C@H](O)[C@@H](c1ccccc1)N3C ; field requested: -fold increase in K i compared with wild-type
1.3 fold

###

# Experimental Target: H^+,K^+-ATPase A339S (Sus scrofa, UniProt P19156, A340S)
# Method Summary: ATPase assay, A339S mutant
Measurement Name: Ki (nM)
Give a bare numeral; the unit nM is implied.

Record lookup: for H^+,K^+-ATPase A339S (Sus scrofa, UniProt P19156, A340S), what Ki belongs to Cc1nc2c3c(ccn2c1C)[C@@H](O)[C@H](O)[C@@H](c1ccccc1)N3 ?
21

###

# Experimental Target: H^+,K^+-ATPase Y140L (Sus scrofa, UniProt P19156, Y141L)
# Method Summary: ATPase assay, Y140L mutant
Measurement Name: pKi
Please treat pKi as minus the base-10 logarithm of the molar concentration.

The examples below pair each entry with its known result.
Cc1nc2c3c(ccn2c1C)[C@@H](O)[C@H](O)[C@@H](c1ccccc1)N3 ... 8.28
Cc1cn2cccc(OCc3ccccc3)c2n1 ... 5.57
Cc1nc2c3c(ccn2c1C)[C@@H](O)[C@H](O)[C@@H](c1ccccc1)N3C ... 5.19

Sample N#CCc1cnc2c(OCc3ccccc3)cccn12 — what was its pKi?
5.43

###

# Experimental Target: H^+,K^+-ATPase N138F (Sus scrofa, UniProt P19156, N139F)
# Method Summary: ATPase assay, N138F mutant
Measured pKi by item
Scale: negative log10 of molar concentration, which is what pKi denotes.

Below: 2 molecules and their reported pKi.
N#CCc1cnc2c(OCc3ccccc3)cccn12 ... 3.49
Cc1cn2cccc(OCc3ccccc3)c2n1 ... 4.28

In the following, a different molecule is considered.
What pKi value was documented for this molecule, Cc1nc2c3c(ccn2c1C)[C@@H](O)[C@H](O)[C@@H](c1ccccc1)N3 ?
5.11

###

# Experimental Target: H^+,K^+-ATPase D136I (Sus scrofa, UniProt P19156, D137I)
# Method Summary: ATPase assay, D136I mutant
# Test Parameters: D136I
Measurement Name: -fold increase in K i compared with wild-type (fold)
Hi! Could you send only the number? It should be in fold, unit omitted.

Guide cases for -fold increase in K i compared with wild-type, answers given:
Cc1nc2c3c(ccn2c1C)[C@@H](O)[C@H](O)[C@@H](c1ccccc1)N3C [BYK73] ... 1.4
Cc1cn2cccc(OCc3ccccc3)c2n1 [SCH-CN^−] ... 1.3
N#CCc1cnc2c(OCc3ccccc3)cccn12 [SCH-Me^−] ... 0.6

We next turn to a different compound, shown below.
Which -fold increase in K i compared with wild-type is reported for this compound? Cc1nc2c3c(ccn2c1C)[C@@H](O)[C@H](O)[C@@H](c1ccccc1)N3 [BYK99]
2.6

###

# Experimental Target: H^+,K^+-ATPase L139A (Sus scrofa, UniProt P19156, L140A)
# Sequence (P19156 whole entry L140A): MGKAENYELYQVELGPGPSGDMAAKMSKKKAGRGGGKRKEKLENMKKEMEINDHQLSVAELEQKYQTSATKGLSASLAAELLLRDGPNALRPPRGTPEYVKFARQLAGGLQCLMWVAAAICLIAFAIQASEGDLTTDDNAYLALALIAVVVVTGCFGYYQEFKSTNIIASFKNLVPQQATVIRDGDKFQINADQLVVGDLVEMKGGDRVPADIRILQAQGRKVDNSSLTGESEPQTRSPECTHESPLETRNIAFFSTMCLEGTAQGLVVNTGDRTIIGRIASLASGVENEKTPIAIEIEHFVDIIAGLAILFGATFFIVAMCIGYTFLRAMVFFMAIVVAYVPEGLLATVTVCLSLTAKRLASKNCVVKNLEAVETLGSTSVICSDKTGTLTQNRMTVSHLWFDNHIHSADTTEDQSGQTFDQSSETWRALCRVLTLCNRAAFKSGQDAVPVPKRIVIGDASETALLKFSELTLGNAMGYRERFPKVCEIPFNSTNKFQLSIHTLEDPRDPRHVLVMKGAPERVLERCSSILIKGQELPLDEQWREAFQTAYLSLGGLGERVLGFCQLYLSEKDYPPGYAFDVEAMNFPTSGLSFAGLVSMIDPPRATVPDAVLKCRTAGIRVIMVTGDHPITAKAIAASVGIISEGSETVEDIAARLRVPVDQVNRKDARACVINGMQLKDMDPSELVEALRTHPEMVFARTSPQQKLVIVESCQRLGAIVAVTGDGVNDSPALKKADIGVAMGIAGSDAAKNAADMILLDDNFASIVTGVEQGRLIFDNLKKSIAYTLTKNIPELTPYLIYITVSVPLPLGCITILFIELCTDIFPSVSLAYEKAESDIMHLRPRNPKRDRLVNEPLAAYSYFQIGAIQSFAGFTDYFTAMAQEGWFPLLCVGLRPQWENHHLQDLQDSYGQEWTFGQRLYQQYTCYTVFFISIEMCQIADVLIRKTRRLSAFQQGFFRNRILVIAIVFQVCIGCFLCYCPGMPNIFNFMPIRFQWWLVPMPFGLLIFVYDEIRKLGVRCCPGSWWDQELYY
# Sequence (P18434 whole entry partner): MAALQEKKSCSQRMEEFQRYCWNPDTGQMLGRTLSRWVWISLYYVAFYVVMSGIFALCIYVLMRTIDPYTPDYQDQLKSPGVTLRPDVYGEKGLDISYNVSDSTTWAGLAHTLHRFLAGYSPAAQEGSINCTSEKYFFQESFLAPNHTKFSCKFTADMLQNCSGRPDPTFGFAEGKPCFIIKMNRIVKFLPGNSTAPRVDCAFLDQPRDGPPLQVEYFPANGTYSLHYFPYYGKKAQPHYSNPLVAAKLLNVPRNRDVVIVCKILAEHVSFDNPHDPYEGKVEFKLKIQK
# Method Summary: ATPase assay, L139A mutant
# Test Parameters: L139A
Attribute: -fold increase in K i compared with wild-type
Express your answer in fold, writing the number without its unit.

N#CCc1cnc2c(OCc3ccccc3)cccn12 ... 0.8

-fold increase in K i compared with wild-type for Cc1nc2c3c(ccn2c1C)[C@@H](O)[C@H](O)[C@@H](c1ccccc1)N3 ?
2.4

Record: Cc1cn2cccc(OCc3ccccc3)c2n1
1.0

Now give it for Cc1nc2c3c(ccn2c1C)[C@@H](O)[C@H](O)[C@@H](c1ccccc1)N3C too.
1.2

###

# Experimental Target: H^+,K^+-ATPase Y140L (Sus scrofa, UniProt P19156, Y141L)
# Method Summary: ATPase assay, Y140L mutant
# Test Parameters: Y140L
Measurement Name: -fold increase in K i compared with wild-type (fold)
Numeric only. Scale: fold

Use these answered entries as a reference point.
Cc1nc2c3c(ccn2c1C)[C@@H](O)[C@H](O)[C@@H](c1ccccc1)N3 ... 0.9
Cc1cn2cccc(OCc3ccccc3)c2n1 ... 0.8
Cc1nc2c3c(ccn2c1C)[C@@H](O)[C@H](O)[C@@H](c1ccccc1)N3C ... 1.3

// next entry
Query: -fold increase in K i compared with wild-type; subject: N#CCc1cnc2c(OCc3ccccc3)cccn12
0.3

###

# Experimental Target: H^+,K^+-ATPase Y140A (Sus scrofa, UniProt P19156, Y141A)
# Method Summary: ATPase assay, Y140A mutant
Listed here are molecules together with their documented pKi.
Give only the number. pKi is defined as minus log10 of concentration in molar units.

Some molecules with recorded pKi:
Cc1nc2c3c(ccn2c1C)[C@@H](O)[C@H](O)[C@@H](c1ccccc1)N3C ... 4.85
Cc1cn2cccc(OCc3ccccc3)c2n1 ... 5.14
Cc1nc2c3c(ccn2c1C)[C@@H](O)[C@H](O)[C@@H](c1ccccc1)N3 ... 7.60

Please report the recorded pKi for N#CCc1cnc2c(OCc3ccccc3)cccn12 .
4.89

###

# Experimental Target: H^+,K^+-ATPase L141I (Sus scrofa, UniProt P19156, L142I)
# Sequence (P19156 whole entry L142I): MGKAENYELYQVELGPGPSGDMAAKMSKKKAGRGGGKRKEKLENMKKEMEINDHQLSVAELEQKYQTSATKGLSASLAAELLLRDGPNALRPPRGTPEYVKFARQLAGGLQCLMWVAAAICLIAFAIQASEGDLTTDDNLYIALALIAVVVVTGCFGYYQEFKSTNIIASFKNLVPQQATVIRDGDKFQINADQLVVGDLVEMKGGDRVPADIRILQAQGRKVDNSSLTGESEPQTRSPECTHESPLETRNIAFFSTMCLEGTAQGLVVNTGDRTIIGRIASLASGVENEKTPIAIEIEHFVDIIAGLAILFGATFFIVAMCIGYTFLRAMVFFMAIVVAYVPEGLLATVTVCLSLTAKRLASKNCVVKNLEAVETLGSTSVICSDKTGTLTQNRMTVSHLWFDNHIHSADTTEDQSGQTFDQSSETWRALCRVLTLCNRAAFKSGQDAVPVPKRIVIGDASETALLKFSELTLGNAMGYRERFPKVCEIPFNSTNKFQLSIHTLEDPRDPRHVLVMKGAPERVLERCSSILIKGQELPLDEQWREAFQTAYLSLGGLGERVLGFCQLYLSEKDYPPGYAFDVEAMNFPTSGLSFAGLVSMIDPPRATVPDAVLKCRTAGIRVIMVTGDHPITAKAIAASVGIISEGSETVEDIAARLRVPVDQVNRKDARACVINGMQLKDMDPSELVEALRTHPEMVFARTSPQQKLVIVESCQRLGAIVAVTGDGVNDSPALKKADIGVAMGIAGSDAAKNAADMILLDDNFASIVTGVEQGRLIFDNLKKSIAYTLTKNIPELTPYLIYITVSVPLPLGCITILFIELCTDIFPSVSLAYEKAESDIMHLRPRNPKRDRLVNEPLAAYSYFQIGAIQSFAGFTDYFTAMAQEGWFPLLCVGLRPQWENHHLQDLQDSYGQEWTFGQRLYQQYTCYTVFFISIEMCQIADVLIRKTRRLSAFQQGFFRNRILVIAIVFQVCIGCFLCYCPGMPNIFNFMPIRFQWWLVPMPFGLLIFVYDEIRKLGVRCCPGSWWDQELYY
# Sequence (P18434 whole entry partner): as the sequence (P18434 whole entry partner) above
# Method Summary: ATPase assay, L141I mutant
# Test Parameters: L141I
Measurement Name: -fold increase in K i compared with wild-type (fold)
Express it in fold; write the number only.

Consider the reported -fold increase in K i compared with wild-type for these compounds:
Cc1nc2c3c(ccn2c1C)[C@@H](O)[C@H](O)[C@@H](c1ccccc1)N3C [BYK73] ... 0.8
Cc1nc2c3c(ccn2c1C)[C@@H](O)[C@H](O)[C@@H](c1ccccc1)N3 [BYK99] ... 1.4
Cc1cn2cccc(OCc3ccccc3)c2n1 [SCH-CN^−] ... 0.8

Recorded -fold increase in K i compared with wild-type for N#CCc1cnc2c(OCc3ccccc3)cccn12 [SCH-Me^−] , please?
0.7

###

Here the recorded Ki is given for each entry.
# Experimental Target: H^+,K^+-ATPase D137F (Sus scrofa, UniProt P19156, D138F)
# Method Summary: ATPase assay, D137F mutant
Expressed in µM, but write only the number.

Below are worked cases with known answers.
Cc1nc2c3c(ccn2c1C)[C@@H](O)[C@H](O)[C@@H](c1ccccc1)N3C ... 110
Cc1nc2c3c(ccn2c1C)[C@@H](O)[C@H](O)[C@@H](c1ccccc1)N3 ... 0.64
Cc1cn2cccc(OCc3ccccc3)c2n1 ... 47

Query compound follows.
For the compound shown here, N#CCc1cnc2c(OCc3ccccc3)cccn12 , give the reported Ki.
34

###

# Experimental Target: H^+,K^+-ATPase N138L (Sus scrofa, UniProt P19156, N139L)
# Sequence (P19156 whole entry N139L): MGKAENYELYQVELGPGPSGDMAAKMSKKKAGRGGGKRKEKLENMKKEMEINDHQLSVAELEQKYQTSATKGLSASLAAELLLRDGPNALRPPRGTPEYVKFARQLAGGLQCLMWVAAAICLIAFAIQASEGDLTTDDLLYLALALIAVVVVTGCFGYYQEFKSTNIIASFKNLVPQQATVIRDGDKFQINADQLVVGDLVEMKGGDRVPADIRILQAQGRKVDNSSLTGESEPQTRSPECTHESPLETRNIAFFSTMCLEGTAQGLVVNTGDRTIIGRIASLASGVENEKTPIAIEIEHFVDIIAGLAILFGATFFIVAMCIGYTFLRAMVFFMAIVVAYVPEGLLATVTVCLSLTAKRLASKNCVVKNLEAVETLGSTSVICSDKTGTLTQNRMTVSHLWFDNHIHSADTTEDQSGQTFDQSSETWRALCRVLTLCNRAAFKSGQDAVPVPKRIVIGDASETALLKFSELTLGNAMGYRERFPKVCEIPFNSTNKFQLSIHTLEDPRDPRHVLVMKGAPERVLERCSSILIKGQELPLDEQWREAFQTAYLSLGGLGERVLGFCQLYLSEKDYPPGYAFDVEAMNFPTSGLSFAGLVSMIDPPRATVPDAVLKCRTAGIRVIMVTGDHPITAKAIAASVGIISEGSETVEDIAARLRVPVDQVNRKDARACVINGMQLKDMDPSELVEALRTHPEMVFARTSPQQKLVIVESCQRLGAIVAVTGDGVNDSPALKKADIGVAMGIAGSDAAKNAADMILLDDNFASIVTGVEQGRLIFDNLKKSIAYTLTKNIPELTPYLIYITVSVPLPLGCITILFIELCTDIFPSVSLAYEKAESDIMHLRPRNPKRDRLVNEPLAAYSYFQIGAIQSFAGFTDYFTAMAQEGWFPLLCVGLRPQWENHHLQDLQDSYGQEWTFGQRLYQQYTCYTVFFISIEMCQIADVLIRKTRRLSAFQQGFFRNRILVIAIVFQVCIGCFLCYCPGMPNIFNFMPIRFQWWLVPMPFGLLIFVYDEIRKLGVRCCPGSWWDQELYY
# Sequence (P18434 whole entry partner): as the sequence (P18434 whole entry partner) above
# Method Summary: ATPase assay, N138L mutant
Measurement Name: pKi
pKi (log units): -log10 of the concentration in mol/L.

Cc1nc2c3c(ccn2c1C)[C@@H](O)[C@H](O)[C@@H](c1ccccc1)N3 ... 5.89
Cc1cn2cccc(OCc3ccccc3)c2n1 ... 4.85

Now turn to the next compound.
Hi! What's the reported pKi for N#CCc1cnc2c(OCc3ccccc3)cccn12 on H^+,K^+-ATPase N138L (Sus scrofa, UniProt P19156, N139L)?
4.64

###

# Experimental Target: H^+,K^+-ATPase D136A (Sus scrofa, UniProt P19156, D137A)
# Sequence (P19156 whole entry D137A): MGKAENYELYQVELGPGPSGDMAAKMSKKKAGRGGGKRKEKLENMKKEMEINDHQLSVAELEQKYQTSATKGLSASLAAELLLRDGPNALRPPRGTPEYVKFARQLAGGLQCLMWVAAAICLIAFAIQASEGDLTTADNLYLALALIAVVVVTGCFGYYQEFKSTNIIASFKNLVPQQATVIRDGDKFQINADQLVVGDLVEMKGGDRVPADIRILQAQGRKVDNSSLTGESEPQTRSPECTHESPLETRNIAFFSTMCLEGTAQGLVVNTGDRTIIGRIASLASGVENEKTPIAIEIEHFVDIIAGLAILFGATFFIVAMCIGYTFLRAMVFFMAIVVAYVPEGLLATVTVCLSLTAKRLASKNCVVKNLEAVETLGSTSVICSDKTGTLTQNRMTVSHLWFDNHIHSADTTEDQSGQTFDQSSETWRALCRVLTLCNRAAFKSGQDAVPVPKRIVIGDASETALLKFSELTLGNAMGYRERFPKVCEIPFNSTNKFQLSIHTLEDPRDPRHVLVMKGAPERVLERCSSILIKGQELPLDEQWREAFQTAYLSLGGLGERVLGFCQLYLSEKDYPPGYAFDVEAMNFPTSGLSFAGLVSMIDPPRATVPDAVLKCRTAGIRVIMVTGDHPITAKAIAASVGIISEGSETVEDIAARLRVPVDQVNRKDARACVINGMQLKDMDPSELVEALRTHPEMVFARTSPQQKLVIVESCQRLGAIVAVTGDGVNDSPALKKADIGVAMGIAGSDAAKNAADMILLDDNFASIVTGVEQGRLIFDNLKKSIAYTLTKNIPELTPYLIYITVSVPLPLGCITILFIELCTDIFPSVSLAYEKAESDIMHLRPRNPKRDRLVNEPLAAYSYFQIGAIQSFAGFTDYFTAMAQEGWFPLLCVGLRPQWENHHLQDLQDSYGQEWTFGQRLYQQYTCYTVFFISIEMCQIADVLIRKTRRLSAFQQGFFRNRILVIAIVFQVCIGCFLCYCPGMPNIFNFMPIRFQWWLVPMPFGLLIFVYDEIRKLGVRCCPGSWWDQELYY
# Sequence (P18434 whole entry partner): as the sequence (P18434 whole entry partner) above
# Method Summary: ATPase assay, D136A mutant
Measurement Name: pKi
pKi here is simply -log10 of the concentration when that concentration is written in mol/L.

// lookup pKi | system=H^+,K^+-ATPase D136A (Sus scrofa, UniProt P19156, D137A) | key= Cc1cn2cccc(OCc3ccccc3)c2n1
5.29

Cc1nc2c3c(ccn2c1C)[C@@H](O)[C@H](O)[C@@H](c1ccccc1)N3 , same question.
8.00

And the next one, Cc1nc2c3c(ccn2c1C)[C@@H](O)[C@H](O)[C@@H](c1ccccc1)N3C ?
5.05

And N#CCc1cnc2c(OCc3ccccc3)cccn12 ?
4.96
